Provenance of the data: PubChem BioAssay AID1241

Can you tell me EC50 for the items I'm about to list?
- EXPERIMENT NOTES: NF-kB promoter reporter activators, neuronal cells, dose response, cell-based, SH-SY5Y, luciferase (AID 1241)
- CONDITION PARAMETERS: fold induction

> print(dat)
                 compound.structure.string  property.name    value
1           N#C/C(=C/c1ccco1)c1nc2ccccc2s1           EC50  1.97 µM
2           CCN(CC)c1ccc(NC(=O)c2ccco2)cc1           EC50   2.5 µM
3  Cc1ccc(NC(=O)COc2ccccc2[N+](=O)[O-])nc1           EC50  18.2 µM
4             CC(=Nc1ccccc1)c1sc2ccccc2c1O           EC50  6.49 µM
5             Fc1ccccc1-c1nc(-c2ccccc2)no1           EC50     4 µM
6           Cc1ccc(-c2nnc(-c3ccccc3)o2)cc1           EC50  3.44 µM

Consider the following items and state reported EC50 for each.
1. Cc1ccc(NC(=O)COc2ccccc2C=O)cc1Cl
2. O=C(CSc1ncnc2ccccc12)c1ccco1
3. CC(C)(C)c1ccc2c(c1)C(=O)c1ccccc1C2=O
4. CC(=O)Nc1cccc(-c2csc(Nc3ccccn3)n2)c1

3.88 µM
4.15 µM
3.19 µM
2.67 µM
